Origin of the recorded values: PubChem BioAssay (NCATS)

max response overview
Assay: qHTS Assay for Lipid Storage Modulators (AID 1519)
Settings: Drosophila S3 cells, BODIPY lipid droplet/cell ratio, laser cytometry; measured here: lipid channel max response; cells loaded with oleic acid
Procedure: NIH Molecular Libraries Probe Production Centers Network [MLPCN] NIH Chemical Genomics Center [NCGC] Assay Submitter (PI): Beller, Mathias; Max-Planck-Institut fur Biophysikalische Chemie […] We dispensed 4 uL of cells at 1.25 x 10^6 cells/mL into LoBase Aurora COC 1,536-well plates (black walled, clear bottom) with a bottle-valve solenoid-based dispenser (Aurora) to obtain 5,000 cells/well. […] The ratio of the total intensity in PMT channel 1 over total intensity of channel 3 was also calculated. […]
Inconclusive results are not listed.
Give the quantity in %, number only.

Worked cases, max response given:
>>> val("CS(=O)(=O)c1ccc(Cn2c3c(c4cc(F)cc(F)c42)CCC[C@H]3CC(=O)O)cc1")
14.3
>>> val("Cc1noc(C)c1-c1ccc2ncnc(N(C)Cc3ccco3)c2c1")
25.4
>>> val("Cc1noc(C)c1C(=O)N1CCC[C@@]2(CCN(C(=O)Nc3cccc(C#N)c3)C2)C1")
24.7

Incoming: What max response value was documented for this compound, `CC1=C(C(=O)O)N2C(=O)[C@@H](NC(=O)[C@@H](N)c3ccccc3)[C@@H]2SC1` ?
Outgoing: -0.484

Incoming: Please give the measured max response for this compound: `COc1cccc(-c2nc(NC3CCNCC3)c3ccccc3n2)c1`
Outgoing: 4.05

Incoming: max response lookup needed for `COc1cccc(Nc2ncc3ncc(=O)n(C)c3n2)c1` , thanks.
Outgoing: 14.9

Incoming: Could you tell me which max response is on file for `COCC(=O)N1CCC[C@@]2(CCN(C(=O)Nc3ccccc3)C2)C1` ?
Outgoing: 10.8

Incoming: Using the record for `COc1ccccc1CN1CC2(CCN(C(=O)c3ccncc3)CC2)C1` , report its max response.
Outgoing: -17.3

Incoming: Please look up its max response: `N[C@@H](CO)C(=O)NNCc1ccc(O)c(O)c1O`
Outgoing: -6.43

Incoming: Any idea what max response was measured for `O=C(c1csnn1)N1CCC2(CCCN(c3cccc(-c4ccccc4)c3)C2)CC1` ?
Outgoing: -3.2

====

Test: qHTS profiling for inhibitors of Plasmodium falciparum proliferation (AID 504749); further: potency means the concentration at half of the fitted maximal effect; nearly all actives have a fitted effect of over 60% in size
Settings: P. falciparum in erythrocytes, SYBR Green DNA, 72 h; parasite line B
Results filed as inconclusive are left out. Activity calls are given as the source filed them. Calls follow the shape of the dose curve; as a rule, active = well fitted inhibition curve with a large enough effect; inconclusive = small, poorly fitted or top-dose-only effect; inactive = flat fitted curve, though single readings scatter.
result type: Potency

Field: example entries. Status: answers known.
>>> val("CCN(CC)CCC[C@H](C)Nc1ccnc2cc(Cl)ccc12")
"316 nM (active)"
>>> val("Cc1cc(/C=C\\c2ccc3cc(N(C)C)ccc3[n+]2C)c(C)n1-c1ccccc1")
"1580 nM (active)"
>>> val("NC(=O)c1cc[n+](CC2=C(C(=O)O)N3C(=O)[C@@H](NC(=O)[C@H](c4ccccc4)S(=O)(=O)[O-])[C@@H]3SC2)cc1")
"3550 nM (active)"

Then there is this molecule:
Incoming: What value of Potency has been recorded for this entry: `CCN(CC)CCC[C@H](C)Nc1c2ccc(Cl)cc2nc2ccc(OC)cc12`
Outgoing: 282 nM (active)

====

Target: Glucocorticoid receptor (Homo sapiens) (UniProt P04150)
Sequence (P04150 whole entry, looked up): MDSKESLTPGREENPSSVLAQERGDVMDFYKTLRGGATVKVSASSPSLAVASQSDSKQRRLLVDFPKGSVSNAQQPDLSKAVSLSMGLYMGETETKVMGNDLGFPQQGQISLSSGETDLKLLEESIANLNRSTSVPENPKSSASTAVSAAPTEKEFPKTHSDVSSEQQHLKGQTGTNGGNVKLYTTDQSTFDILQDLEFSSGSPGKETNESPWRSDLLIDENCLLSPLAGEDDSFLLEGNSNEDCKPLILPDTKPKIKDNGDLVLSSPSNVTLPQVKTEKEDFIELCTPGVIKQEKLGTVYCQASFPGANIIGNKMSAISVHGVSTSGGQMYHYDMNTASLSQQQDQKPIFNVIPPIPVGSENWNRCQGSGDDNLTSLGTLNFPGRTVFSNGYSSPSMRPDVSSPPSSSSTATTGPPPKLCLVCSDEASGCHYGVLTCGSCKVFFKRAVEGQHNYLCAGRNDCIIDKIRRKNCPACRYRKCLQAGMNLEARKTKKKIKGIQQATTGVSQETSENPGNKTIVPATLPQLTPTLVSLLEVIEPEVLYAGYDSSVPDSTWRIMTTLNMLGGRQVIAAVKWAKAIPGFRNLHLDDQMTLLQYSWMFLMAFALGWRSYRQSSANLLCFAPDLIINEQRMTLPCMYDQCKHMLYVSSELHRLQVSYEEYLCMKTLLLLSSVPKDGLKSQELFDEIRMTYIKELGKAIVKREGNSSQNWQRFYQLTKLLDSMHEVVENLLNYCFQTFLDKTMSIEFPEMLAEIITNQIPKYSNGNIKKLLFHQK
Test: GR-GFP Redistribution (AID 450); further: potency means the concentration at half of the fitted maximal effect
Conditions: U2OS GR-GFP nuclear translocation, laser cytometry, 2 h
Active and inactive are the calls of the source.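 Rule for the calls: active = compounds whose dose series gives a full or clear partial fitted curve of increased nuclear translocation; inconclusive = weak partial curve or effect only at the top dose; inactive = no dose-dependent translocation response.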
result type: Potency

>>> val("COc1ccccc1CNc1ncncc1-c1ccc(N(C)C)cc1")
"> 46 µM (inactive)"
>>> val("FC(F)(F)c1ccccc1-c1ccc2ncnc(N3CCOCC3)c2c1")
"> 46 µM (inactive)"
>>> val("CS(=O)(=O)Nc1cccc(-c2cncnc2NCc2ccccc2)c1")
"> 46 µM (inactive)"
>>> val("N#CCCn1c(=O)c(-c2ccc(Cl)cc2)nc2cnc(N3CCNCC3)nc21")
"> 9.22 µM (inactive)"
>>> val("COc1ccc(-n2c(=O)c(-c3ccc(F)cc3)nc3cncnc32)cc1")
"> 9.22 µM (inactive)"

Incoming: Form field: reported Potency of `Cc1nc2cncnc2n(Cc2ccccc2Cl)c1=O`
Outgoing: > 9.22 µM (inactive)

Incoming: Look up Potency: `Cn1cc(-c2nc3cnc(Oc4ccccc4)nc3n(CCC#N)c2=O)c2ccccc21`
Outgoing: > 9.22 µM (inactive)

Incoming: Name the reported Potency value associated with the compound `CCNc1ncc2nc(-c3ccc(Cl)cc3)c(=O)n(C3CC3)c2n1`
Outgoing: > 9.22 µM (inactive)

Incoming: Please look up its Potency: `CCN1C(=O)N[C@@H](c2ccccc2)C1=O`
Outgoing: > 20.6 µM (inactive)

Incoming: I would be grateful if you could share the reported Potency for `Cc1cnc(CNc2cc(-c3ccc(N(C)C)cc3)ncn2)cn1` .
Outgoing: > 46 µM (inactive)

====

Catalogue of max response readings, one per entry.
Test: qHTS Assay for Lipid Storage Modulators (AID 1519)
Settings: Drosophila S3 cells, BODIPY lipid droplet/cell ratio, laser cytometry; measured here: cell count channel max response; cells loaded with oleic acid
Inconclusive results are not listed.
Kindly provide the numeric value in % only, without the unit symbol.

>>> val("O=C(c1cccc(F)c1)N1CCC2(CCN(Cc3ccccc3)CC2)CC1")
6.47
>>> val("CC(=O)OCC1=C(C(=O)O)N2C(=O)[C@@H](NC(=O)CSc3ccncc3)[C@@H]2SC1")
-7.14
>>> val("Cc1cccc(CNc2ccnc(-c3ccc(C(=O)N(C)C)cc3)n2)c1")
-6.92

Incoming: What value of measured max response is listed for `CC(C)CN1CCCC2(CCN(S(=O)(=O)c3ccccc3)CC2)C1` ?
Outgoing: 12.5

Incoming: Recorded max response of `COc1ccc(C(=O)N2CCC[C@@]3(CCN(c4ccccn4)C3)C2)cc1` , please.
Outgoing: 13.5

====

Assay: Stat Signaling Pathway (AID 446);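 further: ME-180 cervical cancer cells given 40 pM IL-6 alongside compound; SIE-controlled beta-lactamase reporter measured as 460/530 nm FRET emission ratio; on the % scale 0 is the no-effect control and ±100 the full control effect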
Conditions: ME-180 (cervical carcinoma) SIE beta-lactamase reporter, IL-6 stimulated, 5 h; at 7.69 µM (top of the series) unless noted
Results filed as inconclusive are left out. Calls of active or inactive are those of the source. Calls come from the whole dose curve; as a rule, active = well fitted curve in either direction with a large enough effect (not every such curve was filed as active); inconclusive = small, poorly fitted or top-dose-only effect, or another doubt; inactive = flat fitted curve, though single readings scatter.
result type: activity, negative = inhibition

>>> val("c1cncc(-c2ccc3ncnc(NC4CCNCC4)c3c2)c1")
"3.6% (inactive)"
>>> val("CCNc1ncc2nc(CCc3ccccc3)c(=O)n(C[C@H]3CCCO3)c2n1")
"-9.11% (inactive)"

Incoming: I am curious: what activity, negative = inhibition value has been reported for `COCCn1c(=O)c(C)nc2cnc(Oc3cccc(Cl)c3)nc21` ?
Outgoing: -4.78% (inactive)

Incoming: Look at this compound and give its reported activity, negative = inhibition. `N#Cc1ccc(CN2CCCC3(CCN(C(=O)c4cc(C(F)(F)F)cc(C(F)(F)F)c4)CC3)C2)cc1`
Outgoing: -17.3% (inactive)

Incoming: Give its activity, negative = inhibition value. Item: `COc1cccc(Cn2c(=O)c(-c3cccc(C#N)c3)nc3cnc(Nc4ccccc4)nc32)c1`
Outgoing: -14.2% (inactive)

Incoming: Which activity, negative = inhibition value belongs to `COc1cccc(-c2nccc(NCCc3c[nH]c4ccc(OC)cc34)n2)c1` ?
Outgoing: -25.8% (inactive)

Incoming: Using the record for `COc1ncc2ncc(=O)n(CCc3ccccc3)c2n1` , report its activity, negative = inhibition.
Outgoing: -13.6% (inactive)

Incoming: So what does the record say about activity, negative = inhibition for `Cn1c(=O)c2c(ncn2C[C@@H](O)CO)n(C)c1=O` ?
Outgoing: 11.3% [at 17.2 µM] (inactive)

Incoming: What value of activity, negative = inhibition has been recorded for this entry: `COc1cccc(Cn2c(=O)c(C)nc3cnc(Nc4cccc(OC)c4)nc32)c1`
Outgoing: -18.7% (inactive)

Incoming: I would be grateful if you could share the reported activity, negative = inhibition for `COc1ccc2[nH]cc(CCNc3nc(-c4ccoc4)nc4ccccc34)c2c1` .
Outgoing: -9.95% (inactive)

Incoming: May I ask what activity, negative = inhibition has been recorded for `COc1cccc(-c2ccc3ncnc(N(C)C)c3c2)c1` ?
Outgoing: -13.9% (inactive)

Incoming: I have this compound here, `COc1ccccc1-c1ccc2ncnc(Nc3ccccc3)c2c1` , and I need its recorded activity, negative = inhibition.
Outgoing: 9.56% (inactive)

Incoming: Which activity, negative = inhibition is listed for `Cc1noc(C)c1-c1nccc(N(C)Cc2ccco2)n1` ?
Outgoing: 3.88% (inactive)

Incoming: Fill in: activity, negative = inhibition of `O=C(c1cc(C(F)(F)F)cc(C(F)(F)F)c1)N1CCC2(CC1)CCN(c1ccccc1)CC2` is ___
Outgoing: -7.04% (inactive)

Incoming: Consider the compound shown here: `COC(=O)N1CCC2(CCCN(c3cccc(-c4ccccc4)c3)C2)CC1` What is its recorded activity, negative = inhibition?
Outgoing: -6.31% (inactive)

Incoming: Given `CC(=O)N1CCC[C@@]2(CCN(c3ccccc3)C2)C1` , state its recorded activity, negative = inhibition.
Outgoing: -6.46% (inactive)

Incoming: What does the record list as activity, negative = inhibition for `O=C(c1ccncc1)N1CCC[C@@]2(CCN(c3cccc(-c4ccccc4)c3)C2)C1` ?
Outgoing: -6.3% (inactive)

Incoming: What does the record list as activity, negative = inhibition for `CN(C)C(=O)c1ccc(-c2nc(NCc3cccs3)c3ccccc3n2)cc1` ?
Outgoing: -25% (inactive)

Incoming: Name the recorded activity, negative = inhibition for `COc1ccccc1CCn1c(=O)c(-c2ccc(F)c(F)c2)nc2cncnc21` .
Outgoing: 10.7% (inactive)

Incoming: Which activity, negative = inhibition is reported for this compound? `c1cncc(CNc2cc(-c3ccoc3)ncn2)c1`
Outgoing: 11.8% (inactive)

Incoming: Endpoint output: activity, negative = inhibition of `CN(C)C(=O)c1ccc(-c2nccc(Nc3ccc(F)cc3)n2)cc1` . Value?
Outgoing: -4.15% (inactive)

Incoming: Which activity, negative = inhibition value is on record for `COc1ccc(CNc2ncncc2-c2ccccc2Cl)c(OC)c1` ?
Outgoing: 15.1% (inactive)
